Tested on: NLRP3
Assay: IL-1β secretion assay in PMA-differentiated, LPS/nigericin-stimulated THP-1 cells (384-well, ELISA read-out)
Type: cell-based, human
Details: Homo sapiens, THP-1, Table 4; IL-1β secretion, LPS/nigericin-stimulated THP-1 cells; read-out: IC50
Procedure: Compounds as provided herein were tested in the following assay. Cell culture medium employed contained RPMI 1640 medium (89%), FBS (10%), Pen/Strep (1%), and 2-mercaptoethanol (0.05 mM). Freezing medium was made up of 90% FBS and 10% DMSO. […] All media was carefully aspirated from each culture flask. […] These supernatant aliquots were analyzed using an IL-Iβ detection kit as described below. If needed, the test samples could be snap frozen and stored at −80° C. until analyzed. […]
pIC50: −log10 of the molar value.
// pIC50 lookup, one value per entry
TEST READOUT: pIC50

molecule=COc1ncc(F)c(NC(=O)CN2CC3(CC3)c3cc(Br)ccc3C2=O)n1 test_readout=pIC50 measured_value=4.65
molecule=O=C(CN1CC2(CC2)c2cc(Br)ccc2C1=O)Nc1nc2cc(Cl)ccn2n1 test_readout=pIC50 measured_value=6.65
molecule=O=C1c2ccc(Br)cc2C2(CC2)CN1C1(C(=O)Nc2ncccn2)CC1 test_readout=pIC50 measured_value=5.43
molecule=O=C(CN1CC2(CC2)c2cc(Br)ccc2C1=O)Nc1cnc2ccccc2c1 test_readout=pIC50 measured_value=5.11
molecule=N#Cc1cnc(NC(=O)CN2CC3(CC3)c3c(ccc(Br)c3F)C2=O)c(F)c1 test_readout=pIC50 measured_value=6.81
molecule=Cc1cc(NC(=O)CN2CC3(CC3)c3cc(Br)ccc3C2=O)nc2ccnn12 test_readout=pIC50 measured_value=5.80
molecule=O=C(CN1CC2(CC2)c2cc(Br)ccc2C1=O)Nc1ncc2ccccc2n1 test_readout=pIC50 measured_value=5.90
molecule=O=C(CN1CC2(CC2)c2cc(Br)ccc2C1=O)Nc1ccc2cncn2c1 test_readout=pIC50 measured_value=5.88
molecule=COc1cccnc1NC(=O)CN1CC2(CC2)c2cc(Br)ccc2C1=O test_readout=pIC50 measured_value=5.37
molecule=O=C(CN1CC2(CC2)c2cc(Br)ccc2C1=O)Nc1nc2ccc(F)cc2o1 test_readout=pIC50 measured_value=6.44
molecule=CN1CCC[C@@H](NC(=O)CN2CC3(CC3)c3cc(Br)ccc3C2=O)C1 test_readout=pIC50 measured_value=5.46
molecule=O=C(CN1CC2(CC2)c2cc(Br)ccc2C1=O)NC12CC(C(F)(F)F)(C1)C2 test_readout=pIC50 measured_value=5.76
molecule=O=C(CN1CC2(CC2)c2cc([C@@]3(F)C[C@H]3C(F)(F)F)ccc2C1=O)Nc1ncc(F)cn1 test_readout=pIC50 measured_value=5.41
molecule=O=C(CN1CC2(CC2)c2cc(Br)ccc2C1=O)Nc1ncncn1 test_readout=pIC50 measured_value=6.51
molecule=O=C(CN1CC2(CC2)c2cc(Br)ccc2C1=O)Nc1nc2cnccc2o1 test_readout=pIC50 measured_value=6.09
molecule=Cn1ncc2nc(NC(=O)CN3CC4(CC4)c4cc(Br)ccc4C3=O)ccc21 test_readout=pIC50 measured_value=5.42
molecule="O=C(CN1CC2(CC2)c2cc([C@@]3(F)C[C@H]3F)ccc2C1=O)Nc1ncc(F)cn1 (single isomer, unassigned)" test_readout=pIC50 measured_value=6.22
molecule=CC(C)(O)CC1(NC(=O)CN2CC3(CC3)c3cc(Br)ccc3C2=O)CC1 test_readout=pIC50 measured_value=4.96
molecule="O=C(CN1C[C@@]2(C[C@@H]2F)c2c(ccc(Br)c2F)C1=O)Nc1ncccn1 (single isomer, unassigned)" test_readout=pIC50 measured_value=7.31
molecule=O=C(CN1CC2(CC2)c2cc(Br)ccc2C1=O)Nc1nc2ccccc2[nH]1 test_readout=pIC50 measured_value=5.58
molecule=Cn1ncc2cc(NC(=O)CN3CC4(CC4)c4cc(Br)ccc4C3=O)ccc21 test_readout=pIC50 measured_value=5.91
molecule=O=C(CN1CC2(CC2)c2cc(Br)ccc2C1=O)Nc1cccc2ncccc12 test_readout=pIC50 measured_value=5.45
molecule=N#Cc1cnc(NC(=O)CN2CC3(CC3)c3c(ccc(Br)c3F)C2=O)nc1 test_readout=pIC50 measured_value=6.92
molecule=O=C(CN1CC2(CC2)c2c(ccc(Br)c2Cl)C1=O)Nc1ncc(F)cn1 test_readout=pIC50 measured_value=6.28
molecule=CS(=O)(=O)CCNC(=O)CN1CC2(CC2)c2cc(Br)ccc2C1=O test_readout=pIC50 measured_value=4.58
molecule=Cn1cc(NC(=O)CN2CC3(CC3)c3cc(Br)ccc3C2=O)ccc1=O test_readout=pIC50 measured_value=4.94
molecule=O=C(CN1CC2(CC2)c2cc(Br)c(F)cc2C1=O)Nc1ncc(F)cn1 test_readout=pIC50 measured_value=6.22
molecule=O=C(CN1CC2(CC2)c2cc(Br)ccc2C1=O)Nc1nccn2ccnc12 test_readout=pIC50 measured_value=5.37
molecule=O=C(CN1CC2(CC2)c2cc(Br)ccc2C1=O)Nc1ccc2cc[nH]c2c1 test_readout=pIC50 measured_value=5.90
molecule=COCCn1cc(NC(=O)CN2CC3(CC3)c3cc(Br)ccc3C2=O)cn1 test_readout=pIC50 measured_value=4.69
molecule=O=C(CN1CC2(CC2)c2cc(Br)ccc2C1=O)Nc1ccc2cnccc2n1 test_readout=pIC50 measured_value=5.90
molecule="O=C(CN1CC2(CC2)c2c(ccc(C3C[C@H]3F)c2F)C1=O)Nc1ncc(F)cn1 (single isomer, unassigned)" test_readout=pIC50 measured_value=5.84
molecule=COc1ccnc(NC(=O)CN2CC3(CC3)c3cc(Br)ccc3C2=O)n1 test_readout=pIC50 measured_value=5.80
molecule=N#Cc1ccc2oc(NC(=O)CN3CC4(CC4)c4cc(Br)ccc4C3=O)nc2c1 test_readout=pIC50 measured_value=5.79

Values were extracted from patent US20230416205A1.
